Data origin: patent US20230357179A1

Listed compounds paired with reported pIC50
Molecular target: A-Raf kinase (Homo sapiens, UniProt P10398, Y301D/Y302D)
Construct: purchased Sigma
Sequence (P10398 with tags, fused parts or gaps Y301D/Y302D): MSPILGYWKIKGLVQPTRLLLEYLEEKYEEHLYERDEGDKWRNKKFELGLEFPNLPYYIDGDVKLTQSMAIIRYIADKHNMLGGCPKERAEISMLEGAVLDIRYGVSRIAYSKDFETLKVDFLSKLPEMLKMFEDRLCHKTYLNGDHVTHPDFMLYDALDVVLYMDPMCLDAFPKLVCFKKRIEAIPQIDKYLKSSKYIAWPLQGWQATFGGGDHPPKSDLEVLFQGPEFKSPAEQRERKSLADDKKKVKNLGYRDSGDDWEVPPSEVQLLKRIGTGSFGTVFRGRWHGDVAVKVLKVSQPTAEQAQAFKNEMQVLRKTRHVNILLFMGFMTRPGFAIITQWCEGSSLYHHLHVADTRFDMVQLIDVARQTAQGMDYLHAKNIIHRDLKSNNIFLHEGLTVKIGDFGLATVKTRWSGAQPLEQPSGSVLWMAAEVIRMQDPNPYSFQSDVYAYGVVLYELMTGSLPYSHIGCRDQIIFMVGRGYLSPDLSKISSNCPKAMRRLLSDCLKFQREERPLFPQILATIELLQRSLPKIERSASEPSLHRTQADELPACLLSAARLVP
Experiment: Biochemical assay for A-Raf.1 (coupled pyruvate kinase/lactate dehydrogenase)
Conditions: read-out: ARAF.1 IC50
Protocol: Biochemical assay for A-Raf.1 Activity of A-Raf kinase (SEQ. ID NO. 1) was determined spectroscopically using a coupled pyruvate kinase/lactate dehydrogenase assay that continuously monitors the ATP hydrolysis-dependent oxidation of NADH (e.g., Schindler et al., Science, 2000, 289, 1938-1942). […] Inhibition of A-Raf was measured by adding serial diluted test compound (final assay concentration of 1% DMSO). […] The reaction rate was calculated using the 4 to 5 h time frame. […]
pIC50: −log10 of the molar value.

input: Complete the entry with pIC50 for CNC(=O)c1cc(-c2cc(-c3cc(NC(=O)NC4CCCCC4)c(F)cc3C)cc(OCCO)n2)ccn1
output: < 6.00

input: Complete the entry with pIC50 for CNC(=O)c1cc(-c2cnnc(-c3cc(NC(=O)N4CC[C@H](OC)C4)cnc3C)c2)ccn1
output: < 6.00

input: Complete the entry with pIC50 for COC(=O)Nc1cc(-c2nccc(-c3cc(NC(=O)NCCC4(OC)CC4)c(F)cc3C)n2)ccn1
output: < 6.00

input: Complete the entry with pIC50 for COC(=O)Nc1cc(-c2cc(-c3cc(NC(=O)N4CCC(C(C)(C)O)C4)cnc3C)ccn2)ccn1 (stereo not shown)
output: < 6.00

input: Complete the entry with pIC50 for Cc1cc(F)c(NC(=O)NCCC(C)(C)F)cc1-c1ccnc(-c2ccnc(NC(=O)C3CC3)c2)c1
output: 6.00 to 6.30

input: Complete the entry with pIC50 for Cc1cc(F)c(NC(=O)N2CCC(C)(C#N)C2)cc1-c1cc(OCCO)nc(-c2ccnc3[nH]ncc23)c1 (stereo not shown)
output: < 6.00

input: Complete the entry with pIC50 for COC(=O)Nc1cc(-c2cc(-c3cc(NC(=O)NCCC4(C)CC4)cnc3C)ccn2)ccn1
output: < 6.00

input: Complete the entry with pIC50 for COC(=O)Nc1cc(-c2cncc(-c3cc(NC(=O)N4CCCC4)ccc3C)c2)ccn1
output: < 6.00

input: Complete the entry with pIC50 for Cc1ccc(NC(=O)Nc2cnn(C(C)(C)C)c2)cc1-c1cc(OCCO)nc(N2CCOCC2)c1
output: < 6.00

input: Complete the entry with pIC50 for COC1(CCNC(=O)Nc2cc(-c3ccnc(-c4ccnc(NC(=O)C5CC5)c4)n3)c(C)cc2F)CC1
output: 6.30 to 7.00

input: Complete the entry with pIC50 for Cc1cc(F)c(NC(=O)Nc2cnn(C(C)(C)C)c2)cc1-c1cc(OCCN(C)C)nc(N2CCOCC2)c1
output: < 6.00

input: Complete the entry with pIC50 for COC(C)(C)CCNC(=O)Nc1cc(-c2cc(OCCO)nc(-c3ccnc4[nH]ncc34)c2)c(C)cc1F
output: < 6.00

input: Complete the entry with pIC50 for COC(=O)Nc1cc(-c2cnnc(-c3cc(NC(=O)N4CCC(C)(C)C4)cnc3C)c2)ccn1
output: < 6.00

----------
target: A-Raf kinase (Homo sapiens, UniProt P10398, Y301D/Y302D); construct: purchased Sigma; experiment: Biochemical assay for A-Raf.1 (coupled pyruvate kinase/lactate dehydrogenase); settings: read-out: ARAF.1 IC50
pIC50: −log10 of the molar value.
Listed compounds paired with reported pIC50

Answered cases to consult:
- Cc1ccc(NC(=O)N2CC[C@@H](C(F)(F)F)C2)cc1-c1cccc(-c2cc(NC(=O)C3CC3)ncn2)c1: < 6.00
- Cc1cc(F)c(NC(=O)NC2CC3(COC3)C2)cc1-c1cc(OCCO)nc(-c2ccnc3[nH]ncc23)c1: < 6.00

input: Retrieve pIC50 on A-Raf kinase (Homo sapiens, UniProt P10398, Y301D/Y302D); query CNC(=O)c1cc(-c2cc(-c3cc(NC(=O)Nc4ccnc(C(C)(C)C#N)c4)ccc3C)ccn2)ccn1
output: < 6.00

input: Retrieve pIC50 on A-Raf kinase (Homo sapiens, UniProt P10398, Y301D/Y302D); query Cc1ncc(NC(=O)NCCC2(C)CC2)cc1-c1cc(OCCO)nc(-c2ccnc3c2CC(=O)N3)c1
output: < 6.00

input: Retrieve pIC50 on A-Raf kinase (Homo sapiens, UniProt P10398, Y301D/Y302D); query CC(=O)Nc1cc(-c2cc(-c3cc(NC(=O)NC4CCCCC4)c(F)cc3C)cc(OCCO)n2)ccn1
output: 6.30 to 7.00

----------
target: A-Raf kinase (Homo sapiens, UniProt P10398, Y301D/Y302D); construct: purchased Sigma; experiment: Biochemical assay for A-Raf.1 (coupled pyruvate kinase/lactate dehydrogenase); conditions: read-out: ARAF.1 IC50
Listed compounds paired with reported IC50

* Cc1cc(F)c(NC(=O)NCCC(F)F)cc1-c1cc(OCCO)nc(-c2ccnc(NC(=O)C3CC3)c2)c1 | 100 to 500 nM
* CC(=O)Nc1cc(-c2cc(-c3cc(NC(=O)N[C@H]4C[C@](C)(F)C4)ccc3C)cc(OCCO)n2)ccn1 | 100 to 500 nM

input: Complete the entry with IC50 for Cc1ncc(NC(=O)NC[C@H](O)C(C)(C)C)cc1-c1ccnc(-c2ccnc(NC(=O)C3CC3)c2)c1
output: > 1000 nM

input: Complete the entry with IC50 for COC1(CCNC(=O)Nc2cc(-c3ccnc(-c4ccnc(NC(=O)C5CC5)c4)c3)c(C)cc2F)CC1
output: 100 to 500 nM
